Give measured Ratio EC50 for each item. Keep answers brief.
- testedTarget: Transient receptor potential cation channel subfamily M member 8 (Homo sapiens, UniProt Q7Z2W7)
- Sequence (Q7Z2W7 whole entry, looked up): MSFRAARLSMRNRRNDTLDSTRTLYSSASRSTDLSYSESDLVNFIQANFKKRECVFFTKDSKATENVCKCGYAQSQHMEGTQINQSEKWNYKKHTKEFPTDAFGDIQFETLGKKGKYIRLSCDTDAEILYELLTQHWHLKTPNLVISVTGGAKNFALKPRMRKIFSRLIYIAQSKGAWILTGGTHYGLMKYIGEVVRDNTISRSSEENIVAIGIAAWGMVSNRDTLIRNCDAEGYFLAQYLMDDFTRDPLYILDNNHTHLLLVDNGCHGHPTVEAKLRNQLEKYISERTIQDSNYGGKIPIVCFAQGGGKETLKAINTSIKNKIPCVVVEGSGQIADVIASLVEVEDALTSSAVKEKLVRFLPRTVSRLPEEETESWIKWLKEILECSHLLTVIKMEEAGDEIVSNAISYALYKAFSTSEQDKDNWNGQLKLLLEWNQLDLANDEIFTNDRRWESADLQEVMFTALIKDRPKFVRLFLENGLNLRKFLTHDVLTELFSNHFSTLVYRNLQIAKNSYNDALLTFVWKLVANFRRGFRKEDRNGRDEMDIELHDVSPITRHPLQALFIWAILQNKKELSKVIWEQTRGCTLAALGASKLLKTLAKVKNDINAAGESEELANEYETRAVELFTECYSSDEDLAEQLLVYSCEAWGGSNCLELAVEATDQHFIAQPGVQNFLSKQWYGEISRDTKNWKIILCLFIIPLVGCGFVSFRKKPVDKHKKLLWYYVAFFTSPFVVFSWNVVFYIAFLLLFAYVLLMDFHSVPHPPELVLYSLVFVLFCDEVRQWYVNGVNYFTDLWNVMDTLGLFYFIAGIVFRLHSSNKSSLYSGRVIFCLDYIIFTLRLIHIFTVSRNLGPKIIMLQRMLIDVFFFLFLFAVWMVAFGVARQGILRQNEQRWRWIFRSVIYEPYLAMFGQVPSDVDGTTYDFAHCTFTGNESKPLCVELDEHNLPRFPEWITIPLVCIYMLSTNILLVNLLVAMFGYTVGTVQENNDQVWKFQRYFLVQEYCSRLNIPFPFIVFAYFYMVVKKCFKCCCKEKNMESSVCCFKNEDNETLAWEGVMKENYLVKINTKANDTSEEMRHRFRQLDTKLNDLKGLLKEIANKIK
- procedureSummary: Potency index, ratio of WS-3 EC50 to compound EC50 for human TRPM8 receptor

Examples from the recorded data:
Cc1ccc(/C=C/C(=O)N(Cc2cccs2)c2ccn[nH]2)cc1 ... > 1e+06
O=C(COc1ccc2c(c1)CCC2)N(Cc1cccs1)c1ccn[nH]1 ... > 1e+06
CCN(Cc1cccs1)C(=O)c1cc2cc(OC)ccc2o1 ... 164
CCN(Cc1cccs1)C(=O)COc1ccccc1 ... 4
Cc1ccc(OCC(=O)N(Cc2cccs2)c2nccn2C)cc1 ... 3

I have 2 molecules here; please give me Ratio EC50 for each one.
1. COc1ccc(OCC(=O)N(Cc2cccs2)c2ccn[nH]2)cc1
2. CCN(Cc1cccs1)C(=O)/C=C/c1ccc2c(c1)OCO2

1. 1140
2. 6830

I have 3 molecules here; please give me Ratio EC50 for each one.
1. CCN(Cc1cccs1)C(=O)COc1ccc(C#N)cc1
2. CCN(Cc1cccs1)C(=O)c1cc2cc(C)ccc2[nH]1
3. CCN(Cc1cc[nH]c1)C(=O)COc1ccc(C)cc1

1. 2
2. 2
3. 0.2

I have 7 molecules here; please give me Ratio EC50 for each one.
1. Cc1ccc(OCC(=O)N(Cc2cccs2)C(C)C)cc1
2. CCN(Cc1ccsc1)C(=O)COc1ccc(C)cc1
3. Cc1ccc(OCC(=O)N(Cc2cccs2)C2CC2)cc1
4. CCN(Cc1cccs1)C(=O)C[C@H](O)c1ccccc1
5. CCc1ccc(OCC(=O)N(CC)Cc2cccs2)cc1
6. CCN(Cc1cccs1)C(=O)CCc1ccc(C)cc1
7. CCN(Cc1ccccc1)C(=O)COc1ccc(C)cc1

1: 66; 2: 49; 3: 577; 4: 0.1; 5: 66; 6: 40; 7: 2

I have 7 molecules here; please give me Ratio EC50 for each one.
1. Cc1ccc(OCC(=O)N(Cc2cccs2)c2ccn(C)n2)cc1
2. CCN(Cc1cccnc1)C(=O)COc1ccc(C)cc1
3. CCN(Cc1cccs1)C(=O)COc1ccc(F)cc1
4. CCN(Cc1ccco1)C(=O)COc1ccc(C)cc1
5. CCN(Cc1cccs1)C(=O)/C=C/c1ccc(C)cc1
6. Cc1ccc(OCC(=O)N(Cc2cccs2)c2ccn[nH]2)cc1
7. O=C(/C=C/c1ccc2c(c1)OCO2)N(Cc1cccs1)c1ccn[nH]1

1. 13
2. 0.2
3. 10
4. 9
5. 2340
6. 35800
7. > 1e+06

I have 5 molecules here; please give me Ratio EC50 for each one.
1. Cc1ccc(OCC(=O)N(Cc2cccs2)C2CCCCC2)cc1
2. CCN(Cc1cccs1)C(=O)COc1ccc(C)cc1O
3. CCN(Cc1cccs1)C(=O)COc1cc(C)ccc1O
4. Cc1ccc(OCC(=O)N(Cc2cccs2)c2c(C)n[nH]c2C)cc1
5. CCCN(Cc1cccs1)C(=O)COc1ccc(C)cc1

0.1
650
180
14700
149

I have 2 molecules here; please give me Ratio EC50 for each one.
1. CCN(Cc1ccc(C)s1)C(=O)COc1ccc(C)cc1
2. CCN(Cc1c[nH]nn1)C(=O)COc1ccc(C)cc1

18
0.1

I have 5 molecules here; please give me Ratio EC50 for each one.
1. CON(Cc1cccs1)C(=O)COc1ccc(C)cc1
2. CCN(Cc1cccs1)C(=O)COc1ccc2c(c1)CCCC2
3. C=CCN(Cc1cccs1)C(=O)COc1ccc(C)cc1
4. Cc1ccc(OCC(=O)N(O)Cc2cccs2)cc1
5. COc1ccc2oc(C(=O)N(Cc3cccs3)c3ccn[nH]3)cc2c1

317
7
365
0.4
30900

I have 3 molecules here; please give me Ratio EC50 for each one.
1. CCN(Cc1cccs1)C(=O)COc1cccc(C)c1
2. Cc1ccc(OCC(=O)N(Cc2cccs2)c2cn[nH]c2)cc1
3. CCN(Cc1cccn1C)C(=O)COc1ccc(C)cc1

42
3820
0.3
